molecular target: GTPase KRas (Homo sapiens); assay: Antiproliferative activity against human COLO 320DM cells harboring wild type KRAS assessed as reduction in cell viability incubated for 24 hrs in presence of MVA
Sequence (P01116 whole entry): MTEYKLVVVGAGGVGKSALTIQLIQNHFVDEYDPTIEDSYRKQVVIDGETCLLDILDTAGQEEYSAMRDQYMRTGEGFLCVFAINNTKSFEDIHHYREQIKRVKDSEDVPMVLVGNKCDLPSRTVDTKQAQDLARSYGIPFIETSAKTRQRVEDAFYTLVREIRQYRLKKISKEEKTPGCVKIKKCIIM

smilesRepr	IC50 / µM
CCCC[C@@H](C)C=C(C)C=C(C)C(=O)NC1=C[C@@](O)(C=CC=CC=CC(=O)NC2C(=O)CCC2=O)[C@@H]2O[C@@H]2C1=O	3.58
